- Study target: CDK1/Cyclin B1, GST-tag (Homo sapiens)
- Construct: GST; purchased BPS 40454
- Sequence (P06493 whole entry): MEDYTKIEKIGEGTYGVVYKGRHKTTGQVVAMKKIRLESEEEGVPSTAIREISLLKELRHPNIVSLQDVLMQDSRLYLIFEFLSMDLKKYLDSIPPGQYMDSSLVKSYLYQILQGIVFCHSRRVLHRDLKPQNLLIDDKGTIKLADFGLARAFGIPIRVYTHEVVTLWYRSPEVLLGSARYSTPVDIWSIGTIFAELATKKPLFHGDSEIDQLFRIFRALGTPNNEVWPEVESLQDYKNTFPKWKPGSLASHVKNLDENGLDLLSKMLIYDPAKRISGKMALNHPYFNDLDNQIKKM
- Sequence (P14635 whole entry partner): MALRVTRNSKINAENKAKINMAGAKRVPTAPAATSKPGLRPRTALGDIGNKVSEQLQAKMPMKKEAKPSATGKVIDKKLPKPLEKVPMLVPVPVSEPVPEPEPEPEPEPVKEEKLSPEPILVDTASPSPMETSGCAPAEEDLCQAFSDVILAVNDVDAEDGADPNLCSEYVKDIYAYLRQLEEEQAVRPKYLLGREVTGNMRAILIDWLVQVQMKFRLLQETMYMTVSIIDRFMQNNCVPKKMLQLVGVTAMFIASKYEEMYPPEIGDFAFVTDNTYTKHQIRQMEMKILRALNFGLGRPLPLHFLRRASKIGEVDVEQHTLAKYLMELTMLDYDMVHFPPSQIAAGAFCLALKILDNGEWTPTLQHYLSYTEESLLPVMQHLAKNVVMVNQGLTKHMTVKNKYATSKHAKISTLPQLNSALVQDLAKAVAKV
- Experiment description: Biochemical CDK inhibition assay (Caliper mobility shift), CDK1/Cyclin B1
pIC50: −log10 of the molar value.
Recorded pIC50 for the following molecules

Completed entries (count: 5):
Molecule	pIC50
COc1cc(S(N)(=O)=O)ccc1Nc1ncc(Cl)c(-c2cnn(CC(C)(C)O)c2)n1	6.30 to 7.00
NS(=O)(=O)c1ccc(Nc2ncc(C(F)(F)F)c(-c3cnn(C4CCOCC4)c3)n2)c(F)c1	≤ 6.30
Cc1cc(Nc2ncc(C(F)(F)F)c(-c3cnn(CC(C)(C)O)c3)n2)cc(C)c1S(N)(=O)=O	6.30 to 7.00
N#Cc1cnc(Nc2ccc(S(N)(=O)=O)cc2)nc1-c1cnn(CCO)c1	6.30 to 7.00
COc1c(S(N)(=O)=O)ccc(Nc2ncc(C(F)(F)F)c(-c3cnn(CC(C)(C)O)c3)n2)c1F	≤ 6.30

**Q:** // lookup pIC50 for C[C@H]([C@@H](C)O)n1cc(-c2nc(Nc3ccc(S(N)(=O)=O)cc3F)ncc2C(F)(F)F)cn1 (single isomer, unassigned)
**A:** 6.30 to 7.00

**Q:** // lookup pIC50 for CC(C)(CO)n1cc(-c2nc(Nc3ccc(S(N)(=O)=O)cc3F)ncc2C(F)(F)F)cn1
**A:** 6.30 to 7.00

Data credit: patent US12668585B2
